Tested on: E. coli ATCC 25922
Format: cell-based, Escherichia coli
measurement_context: ATCC 25922, 24 h
No end group written: not given here.
value_kind: MIC (µg/mL)
Answers are plain numbers, in µg/mL.

Solved entries (count: 4):
1. FKAFKAFKAFKAFKAFKA [SEQ ID NO: 5, FKAFKAFKAFKAFKAFKA]    32
2. FKAFKAFKAFKAFKA [SEQ ID NO: 4, FKAFKAFKAFKAFKA]    128
3. LKVLKVLKVLKVLKV [SEQ ID NO: 2, LKVLKVLKVLKVLKV]    32
4. LKVLKVLKVLKVLKVLKV [SEQ ID NO: 3, LKVLKVLKVLKVLKVLKV]    4

Now for a further sequence.
For the record LKALKALKALKALKR [SEQ ID NO: 1, LKALKALKALKALKR] , what value of MIC is listed for E. coli ATCC 25922?
64

Recorded values, source patent US7563764B2.
